- Tested on: L1210 leukemia ip in BDF1 mice, survival T/C
- Assay Overview: NCI In Vivo Anticancer Drug Screen. Data for tumor model L1210 Leukemia (intraperitoneal) in B6D2F1 (BDF1) mice
- Condition Details: endpoint: mean survival time; dose: 400.0 mg/kg/injection; schedule: Q01DX001 (ip); vehicle: Klucel (hydroxypropylcellulose) (HPC); higher = longer survival
Toxic doses and inconclusive results are not listed.
Listing of recorded T/C by entry.

The cases that follow already have their T/C on record.
O=C1C=C(C2CCCCC2)C(=O)C2CCCCC12 (configuration not stated) :: 114 % of control
O=C1c2ccccc2C(=O)N1c1ccccc1-c1ccccc1 :: 89 % of control
COC(=O)NC1CCC(NC(=O)OC)CC1 (configuration not stated) :: 91 % of control

We now examine a further compound.
Output measured T/C for this item: O=C(Nc1ccc(Br)cc1C(F)(F)F)C(F)(F)F
97 % of control

====

Listing of recorded T/C by entry.
- Tested on: L1210 leukemia ip in BDF1 mice, survival T/C
- Assay Overview: NCI In Vivo Anticancer Drug Screen. Data for tumor model L1210 Leukemia (intraperitoneal) in B6D2F1 (BDF1) mice
- Condition Details: endpoint: mean survival time; dose: 400.0 mg/kg/injection; schedule: Q01DX009 (ip); vehicle: Klucel (hydroxypropylcellulose) (HPC); higher = longer survival
Toxic doses and inconclusive results are not listed.

The cases that follow already have their T/C on record.
S=C(NCc1cccc2ccccc12)Nc1ccccc1 :: 104 % of control
O=C(Nc1ccccn1)NC1CCCCC1 :: 98 % of control
Cc1ccc(NC(=O)Nc2ccccc2Cl)cc1Cl :: 100 % of control
CC(=O)Nc1ccc(NC(=O)Nc2cc([N+](=O)[O-])ccc2C)cc1 :: 96 % of control
Cc1ccc(/C([O-])=C(\C(=S)Nc2cccc(C(F)(F)F)c2)[n+]2ccccc2)cc1 :: 94 % of control
CC(=O)CC(=O)Nc1cccc(C)c1C :: 88 % of control

Output measured T/C for this item: O=C(O)c1ccc2c(c1)OCO2
99 % of control

Output measured T/C for this item: CC12C=CC(C=C1)C(O)C2 (stereo not drawn)
90 % of control

Output measured T/C for this item: O=C(Nc1ccc(I)cc1)Nc1cc(C(F)(F)F)ccc1Cl
88 % of control

Output measured T/C for this item: O=C(O)CCCCSc1ncnc2nc[nH]c12
116 % of control

Output measured T/C for this item: COc1ccc(Cl)cc1NS(=O)(=O)c1ccc(Cl)c([N+](=O)[O-])c1
98 % of control

Output measured T/C for this item: O=C1CCC(c2ccccc2)=NN1c1ccccc1
96 % of control

Output measured T/C for this item: CCOC(=O)C(Cc1ccccc1)NP(=O)(OCCCl)OCCCl (stereo not drawn)
101 % of control

Output measured T/C for this item: O=C(CCCCCCCCC(=O)Nc1cccc(C(F)(F)F)c1)Nc1cccc(C(F)(F)F)c1
95 % of control

Output measured T/C for this item: C=CCNC(=S)NNC(=O)c1ccncc1
104 % of control

Output measured T/C for this item: COc1ccc(OC)c(NC(=O)Nc2cc(OC)c(Cl)cc2OC)c1
87 % of control

Output measured T/C for this item: CCCCCCCCOc1ccc(C=Nc2ccc(C)cc2)cc1
92 % of control

Each recorded value in this set is attributed to PubChem BioAssay AID248.
